# target.under.test: T1, Mcl-1, Q07820
# T1 chain: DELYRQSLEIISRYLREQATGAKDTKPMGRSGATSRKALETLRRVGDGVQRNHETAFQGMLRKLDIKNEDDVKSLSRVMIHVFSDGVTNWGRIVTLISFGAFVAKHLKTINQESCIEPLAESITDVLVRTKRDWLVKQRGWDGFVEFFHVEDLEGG
# protocol.notes: peptide SPOT array, c-Myc-tagged receptor at 1 uM or 100 nM, anti-c-Myc-Cy3
measured.quantity: SPOT signal as a fraction of Bim BH3's signal on the same receptor and array

Worked cases, SPOT signal as a fraction of Bim BH3's signal on the same receptor and array given:
{"binder": "ALKKADVGFAMGIALTDVAKEASDII [ATP2B1]", "endpoint.result": 0.01}
{"binder": "ADLRALLCRELRPLGAYMSGRLKVKG [STOML1]", "endpoint.result": 0.37}

[P] AFTEREASEIDKSIGEAIQYLHSINI [MAPKAPK2]
[Q] PDKRLTLSQIYQYVLDNFPFYNKSKA [FOXI1]
[R] SGKLKEMVPIIAQYGDVLVRNLRREA [CYP3A4]
*Q* Put the items in sequence by SPOT signal as a fraction of Bim BH3's signal on the same receptor and array, from largest down. Returns: the labels listed in the requested order.
*A* Q, R, P
(Q: 0.39, R: 0.07, P: 0.02)

[P] WTLFVYTKGNFRMIGDDLVNSYHLLL [RBL1]
[Q] CQGDTVISECLQRFADSLQEVVNYHM [ACAP3]
*Q* Looking at P and Q , which one comes out lower in SPOT signal as a fraction of Bim BH3's signal on the same receptor and array terms? // output: label of the selected item
*A* Q
(Q: 0.02, P: 0.15)

[P] LRVSTKIGSCDKSVGEVMGIGRSFEE [CAD]
[Q] NKSLTTLGLVISSLADQAAGKGKSKF [KIF13A]
*Q* Could you please tell me which of these two has the higher SPOT signal as a fraction of Bim BH3's signal on the same receptor and array: P or Q ? // output: label of the selected item
*A* Q
(Q: 0.18, P: 0.02)
